Reported hEPO values for the following compounds.
Test system: hEPO
Run Description: Quantification of hEPO in serum after IV injection of mRNA (Human EPO ELISA)
Assay type: in vivo
Study Conditions: Balb/c mice, 2.5 μg mRNA IV, serum after 6 hours
Non-standard residues stand in square brackets, D forms with d. Residues, ends and D or L forms follow the SMILES beside them. *: point of attachment. Gly(N-(3-decanoyloxypropyl)) = CCCCCCCCCC(=O)OCCCNCC(=O)O; N(3-lauroyloxypropyl)Gly = CCCCCCCCCCCC(=O)OCCCNCC(=O)O; Gly(N-(CH2)3O-octanoyl) = CCCCCCCC(=O)OCCCNCC(=O)O; N(3-imidazol-1-ylpropyl)Gly = O=C(O)CNCCCn1ccnc1; N(2-ethylhexyl)Gly = CCCCC(CC)CNCC(=O)O; N(CH(CH2OH)2)Gly = O=C(O)CNC(CO)CO; NDecylGly = CCCCCCCCCCNCC(=O)O; NHexGly = CCCCCCNCC(=O)O; For = O=C*
Endpoint Label: hEPO (ng/mL)

>>> reported("CCCCCCCCCCN(C=O)CC(=O)N(CCCOC(=O)CCCCCCC)CC(=O)N(CC(=O)N(CCCn1ccnc1)CC(=O)N(CC(=O)N(CCCOC(=O)CCCCCCC)CC(=O)N(CCCCCCCCCC)CC(N)=O)CC(CC)CCCC)CC(CC)CCCC (stereo not drawn) [Compound 114] (For-[NDecylGly][Gly(N-(CH2)3O-octanoyl)][N(2-ethylhexyl)Gly][N(3-imidazol-1-ylpropyl)Gly][N(2-ethylhexyl)Gly][Gly(N-(CH2)3O-octanoyl)][NDecylGly]-NH2)")
23.7
>>> reported("CCCCCCCCCCCC(=O)OCCCN(CC(=O)N(CC(N)=O)CC(CC)CCCC)C(=O)CN(CCCCCC)C(=O)CN(CC(CC)CCCC)C(=O)CN(CCCOC(=O)CCCCCCCCCCC)C(=O)CN(CCCCCC)C(=O)CNC(CO)CO (stereo not drawn) [Compound 54] (H-[N(CH(CH2OH)2)Gly][NHexGly][N(3-lauroyloxypropyl)Gly][N(2-ethylhexyl)Gly][NHexGly][N(3-lauroyloxypropyl)Gly][N(2-ethylhexyl)Gly]-NH2)")
37.4
>>> reported("CCCCCCCCCC(=O)OCCCN(CC(=O)N(CC(=O)N(CCCCCC)CC(=O)N(CCCOC(=O)CCCCCCCCC)CC(=O)N(CC(=O)N(CCCCCC)CC(N)=O)CC(CC)CCCC)CC(CC)CCCC)C(=O)CNC(CO)CO (stereo not drawn) [Compound 55] (H-[N(CH(CH2OH)2)Gly][Gly(N-(3-decanoyloxypropyl))][N(2-ethylhexyl)Gly][NHexGly][Gly(N-(3-decanoyloxypropyl))][N(2-ethylhexyl)Gly][NHexGly]-NH2)")
63.1

###

Tested on: hEPO
Run Description: Quantification of hEPO in serum after IV injection of mRNA (Human EPO ELISA)
Assay type: in vivo
Study Conditions: Balb/c mice, 2.5 μg mRNA IV, serum after 6 hours
Starred links: 1 amine or outer side, 2 acyl side, 3 side chain; linkers in the order of their positions; H or OH if unused. Non-standard residues stand in square brackets, D forms with d. Residues, ends and D or L forms follow the SMILES beside them. *: point of attachment. Gly(N-(3-decanoyloxypropyl)) = CCCCCCCCCC(=O)OCCCNCC(=O)O; N(3-lauroyloxypropyl)Gly = CCCCCCCCCCCC(=O)OCCCNCC(=O)O; Gly(N-3-morpholinopropyl) = O=C(O)CNCCCN1CCOCC1; N(2-ethylhexyl)Gly = CCCCC(CC)CNCC(=O)O; X2 = CCCCCCC(CCCC)CN(CC(=O)[*:2])[*:1]; N(CH(CH2OH)2)Gly = O=C(O)CNC(CO)CO; NHexGly = CCCCCCNCC(=O)O; For = O=C*
Lab note: cut-off is 400 ng/mL. Strictly less in hEPO is Condition met. Exactly 400 ng/mL or more is Condition not met.

>>> discrete_label("CCCCCCCCCC(=O)OCCCN(CC(=O)N(CC(=O)N(CC(=O)N(CCCOC(=O)CCCCCCCCC)CC(=O)N(CC(N)=O)CC(CCCC)CCCCCC)CC(CC)CCCC)CC(CCCC)CCCCCC)C(=O)CN(CC(CC)CCCC)C(=O)CNC(CO)CO (centres unmarked) [Compound 61] (H-[N(CH(CH2OH)2)Gly][N(2-ethylhexyl)Gly][Gly(N-(3-decanoyloxypropyl))][X2][N(2-ethylhexyl)Gly][Gly(N-(3-decanoyloxypropyl))][X2]-NH2)")
"Condition not met"
>>> discrete_label("CCCCCCCCCCCC(=O)OCCCN(CC(=O)N(CC(=O)N(CCCCCC)CC(=O)N(CCCOC(=O)CCCCCCCCCCC)CC(=O)N(CC(=O)N(CCCCCC)CC(N)=O)CC(CC)CCCC)CC(CC)CCCC)C(=O)CN(C=O)CCCN1CCOCC1 (centres unmarked) [Compound 70] (For-[Gly(N-3-morpholinopropyl)][N(3-lauroyloxypropyl)Gly][N(2-ethylhexyl)Gly][NHexGly][N(3-lauroyloxypropyl)Gly][N(2-ethylhexyl)Gly][NHexGly]-NH2)")
"Condition met"
>>> discrete_label("CCCCCCCCCCCC(=O)OCCCN(CC(=O)N(CC(=O)N(CC(=O)N(CCCOC(=O)CCCCCCCCCCC)CC(=O)N(CC(=O)N(CC(N)=O)CC(CC)CCCC)CC(CC)CCCC)CC(CC)CCCC)CC(CC)CCCC)C(=O)CNC(CO)CO (centres unmarked) [Compound 51] (H-[N(CH(CH2OH)2)Gly][N(3-lauroyloxypropyl)Gly][N(2-ethylhexyl)Gly][N(2-ethylhexyl)Gly][N(3-lauroyloxypropyl)Gly][N(2-ethylhexyl)Gly][N(2-ethylhexyl)Gly]-NH2)")
"Condition not met"
>>> discrete_label("CCCCCCCCCCCC(=O)OCCN(CC(=O)N(CCOC(=O)CCCCCCCCCCC)CC(=O)N(CC(=O)N(CCOC(=O)CCCCCCCCCCC)CC(=O)N(CCOC(=O)CCCCCCCCCCC)CC(=O)N(CC(N)=O)CC(CC)CCCC)CC(CC)CCCC)C(=O)CN(C=O)CCCN1CCOCC1 (centres unmarked)")
"Condition met"
>>> discrete_label("CCCCCCCCCCCC(=O)OCCCN(CC(=O)N(CCCOC(=O)CCCCCCCCCCC)CC(=O)N(CCCCCC)CC(=O)N(CCCOC(=O)CCCCCCCCCCC)CC(=O)N(CCCOC(=O)CCCCCCCCCCC)CC(=O)N(CCCCCC)CC(N)=O)C(=O)CN(C=O)CCCN1CCOCC1 [Compound 71] (For-[Gly(N-3-morpholinopropyl)][N(3-lauroyloxypropyl)Gly][N(3-lauroyloxypropyl)Gly][NHexGly][N(3-lauroyloxypropyl)Gly][N(3-lauroyloxypropyl)Gly][NHexGly]-NH2)")
"Condition met"
